# System: HCT-116
# procedureDetails: Inhibition of proteasome in human HCT116 cells assessed as accumulation of p53 by Western blotting analysis
# Format: cell-based
Activity calls are given as the source filed them. No cut-off for these calls is given here.
measurementLabel: p53 accumulation (active/inactive)

> print(dat)
                            molecularstring                    measurementlabel  assayresult
1  C=C[C@H](C[C@@H]1C[C@@H]1NC(=O)[C@@H]1OC(=O)[C@H]1[C@@H](C)CC)NC(=O)[C@H](Cc1ccccc1)NC(=O)OCc1ccccc1  p53 accumulation (active/inactive)       Active
2  C=C[C@H](C[C@@H]1C[C@@H]1NC(=O)[C@@H]1OC(=O)[C@H]1[C@@H](C)CC)NC(=O)c1ccc2ccccc2c1  p53 accumulation (active/inactive)       Active
3  CC(C)C[C@H](NC(=O)[C@H](Cc1ccccc1)NC(=O)c1cnccn1)B(O)O  p53 accumulation (active/inactive)       Active
4  C=C[C@H](C[C@@H]1C[C@@H]1NC(=O)[C@@H]1OC(=O)[C@H]1[C@@H](C)CC)NC(=O)[C@H](C)NC(=O)c1ccc2ccccc2c1  p53 accumulation (active/inactive)       Active
5  CC[C@H](C)[C@@H]1C(=O)O[C@H]1C(=O)N[C@H]1C[C@H]1C[C@@H](CCc1ccccc1)NC(=O)[C@H](C)NC(=O)OCc1ccccc1  p53 accumulation (active/inactive)       Active

Please turn your attention to the following entry.
Exercise: Reported p53 accumulation (active/inactive) for HCT-116, given CC[C@H](C)[C@@H]1C(=O)O[C@H]1C(=O)N[C@H]1C[C@H]1C[C@@H](CCc1ccccc1)NC(=O)[C@H](C)NC(=O)c1ccc2ccccc2c1 ?
Solution: Active
